Record form. Attribute: normalized growth. Fill in for each entry.
# procedure-summary: chemical genetic growth profiling, strain panel (AID 1159580);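 further: tested at 20 µM; growth read once vehicle control cultures reached saturation at 30 °C; 1 = growth at the plate median or of vehicle wells; lower values mean less growth of the strain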
# experimental-conditions: S. cerevisiae deletion strains, growth OD, locus YKL085W, strain MDH1, active compounds read low
Out of some 5,500 compounds screened, about 2,000 (36%) were called active. Roughly 18% stayed inconclusive and do not appear here. The list shows a part of the results.
Numbers only.

{"compound": "Cc1cc(=O)c2c(O)c3c(cc2o1)OC(C)(C)CC3", "observed-property": "normalized growth", "measured-result": 1}

For each of the compounds below, note its normalized growth.
1. COc1c(O)cc2c(-c3ccccc3)cc(=O)oc2c1OC
2. O=C1CC[C@]23C=CC(=O)NCCCCNCCCNC(=O)/C=C/c4ccc(c2c4)O[C@@H]3C1
3. COC(=O)C[C@H]1C(C)(C)C(=O)[C@@H]2CC3=C4CC(OC)O[C@@H](c5ccoc5)[C@]4(C)CCC3[C@@]1(C)C2=O (some centres undefined)

*A*
1: 0.973; 2: 0.997; 3: 1

Count: 8. Required value per item: normalized growth.
1. COC(=O)C1=C(C)NC(C)=C(C(=O)OCCN(C)Cc2ccccc2)C1c1cccc([N+](=O)[O-])c1 (centres undefined)
2. COc1cc([C@@H]2c3cc4c(cc3[C@H](O)[C@H]3COC(=O)[C@@H]23)OCO4)cc(OC)c1OC
3. CC(C)=CCc1c2c(c(O)c3c(=O)c(O)c(-c4ccccc4)oc13)C=CC(C)(C)O2
4. COc1c(O)cccc1O
5. COc1ccc(-c2cc(=O)c3cc(OC)ccc3o2)cc1
6. CC(C)[C@]12O[C@H]1[C@@H]1O[C@@]13[C@@]1(C)CCC4=C(COC4=O)[C@@H]1C[C@@H]1O[C@@]13C2=O
7. CC(=O)Oc1cc(-c2coc3cc(OC(C)=O)c(OC(C)=O)c(OC(C)=O)c3c2=O)cc(OC(C)=O)c1OC(C)=O
8. CCn1cc(C(=O)O)c(=O)c2cc(F)c(N3CCNCC3)cc21

*A*
1. 0.993
2. 1
3. 0.984
4. 1.01
5. 0.997
6. 0.997
7. 1.01
8. 1

Please give normalized growth for each item listed below.
1. CC(=O)O[C@H]1C[C@@H](O)C(C)(C)C2C[C@@H](OC(C)=O)[C@]3(C)C(CC[C@@]4(C)[C@H](c5ccoc5)OC(=O)C5OC543)[C@]21C (some centres undefined)
2. Cn1nnnc1SCC1=C(C(=O)O)N2C(=O)C(NC(=O)C(O)c3ccccc3)C2SC1 (centres undefined)

*A*
1. 0.974
2. 1.01

====

# procedure-summary: chemical genetic growth profiling, strain panel (AID 1159580);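 further: tested at 20 µM; growth read once vehicle control cultures reached saturation at 30 °C; 1 = growth at the plate median or of vehicle wells; lower values mean less growth of the strain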
# experimental-conditions: S. cerevisiae deletion strains, growth OD, locus YJL168C, strain set2, active compounds read low
About 2,000 (36%) of roughly 5,500 compounds were called active. Not shown: some 18% with an inconclusive outcome. This is one part of the list.
Give normalized growth for every item shown.
Give bare numbers.

Previously resolved entries follow.
{"molecule": "CCOC(=O)C1C(C=C(C)C)C1(C)C (centres undefined)", "normalized growth": 1.01}
{"molecule": "CN1CCOC(c2ccccc2)c2ccccc2C1 (centres undefined)", "normalized growth": 1.02}
{"molecule": "CNCCC=C1c2ccccc2CCc2ccccc21", "normalized growth": 1.01}
{"molecule": "CC(=O)O[C@@H]1CC2C(C)(C)[C@H](O)C[C@H](O)[C@]2(C)C2CC[C@@]3(C)[C@H](c4ccoc4)OC(=O)[C@H]4O[C@]43[C@@]21C (some centres undefined)", "normalized growth": 0.984}
{"molecule": "CCn1cc(C(=O)O)c(=O)c2cc(F)c(N3CCNCC3)cc21", "normalized growth": 1}
{"molecule": "CCCCCCCCCc1ccc(O)cc1", "normalized growth": 0.992}

# batch size: 7; output normalized growth per entry
1. CC[N+]1(C)CCCC(OC(=O)C(O)(c2ccccc2)c2ccccc2)C1 (centres undefined)
2. CC1(C)O[C@@H]2CC3C4CCC5=CC(=O)C=C[C@]5(C)[C@@]4(F)[C@@H](O)C[C@]3(C)[C@]2(C(=O)CO)O1 (some centres undefined)
3. CC(=O)OC1CC2C(C)(C)CCCC2(C)C2CCC3(C)C(c4ccoc4)OC(=O)C4OC43C12C (centres undefined)
4. O=C1CC[C@]23C=CC(=O)NCCCCNCCCNC(=O)/C=C/c4ccc(c2c4)O[C@@H]3C1
5. CCC(/C=C/[C@@H](C)[C@H]1CCC2C3CC=C4C[C@@H](O)CC[C@]4(C)C3CC[C@@]21C)C(C)C (some centres undefined)
6. CN(C)CCC=C1c2ccccc2CCc2ccccc21
7. COc1cc([C@@H]2c3cc4c(cc3[C@H](OC(C)=O)[C@H]3COC(=O)[C@H]23)OCO4)cc(OC)c1OC

*A*
1.01
0.993
1.01
1
0.997
1.01
0.977

Hi team, please reply with normalized growth for each item in this list.
1. CN1CCc2c(c3ccccc3n2Cc2ccccc2)C1
2. OC1C(O)C(O)C(O)C(O)C1O (centres undefined)
3. COc1cc2cc[n+]3cc4c(OC)c(OC)ccc4cc3c2cc1OC

*A*
[1.02, 0.998, 0.98]

Please supply normalized growth for each of the following items, keeping them in order.
1. CN(C)CC/C=C1/c2ccccc2COc2ccccc21
2. C=C1C(N)CC2CC1C2(C)C (centres undefined)
3. Cn1nnnc1SCC1=C(C(=O)O)N2C(=O)C(NC(=O)C(O)c3ccccc3)C2SC1 (centres undefined)

*A*
1.01
1.01
0.995

====

# procedure-summary: chemical genetic growth profiling, strain panel (AID 1159580);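 further: tested at 20 µM; growth read once vehicle control cultures reached saturation at 30 °C; 1 = growth at the plate median or of vehicle wells; lower values mean less growth of the strain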
# experimental-conditions: S. cerevisiae deletion strains, growth OD, locus YOL136C, strain PFK27, active compounds read low
Screen size: about 5,500 compounds; about 2,000 (36%) were called active. About 18% were inconclusive and are not listed. The list shows a part of the results.
observed-property: normalized growth

Answered examples (2):
{"item-smiles": "CC(C)CSc1nnc(CSCc2nc(-c3ccc(Cl)cc3)cs2)n1C", "normalized growth": "0.882 (inactive)"}
{"item-smiles": "N/C(CSc1ncccc1C(F)(F)F)=N/OC(=O)Nc1cccc(Cl)c1", "normalized growth": "0.916 (inactive)"}

# input for lookup
*Q* Query (molecule): `N#CCCCCOc1ccc2c(=O)cc(-c3ccccc3)oc2c1` ; field requested: normalized growth
*A* 0.919 (inactive)

====

# procedure-summary: chemical genetic growth profiling, strain panel (AID 1159580);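 further: tested at 20 µM; growth read once vehicle control cultures reached saturation at 30 °C; 1 = growth at the plate median or of vehicle wells; lower values mean less growth of the strain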
# experimental-conditions: S. cerevisiae deletion strains, growth OD, locus YLR371W, strain rom2, active compounds read low
Out of some 5,500 compounds screened, about 2,000 (36%) were called active. Inconclusive results (about 18%) are left out. This is one part of the list.
observed-property: normalized growth
Answers are plain numbers.

Sample answers from the record:
{"compound": "CC(C)[C@]12O[C@H]1[C@@H]1O[C@@]13[C@@]1(C)CCC4=C(COC4=O)[C@@H]1C[C@@H]1O[C@@]13C2=O", "measured-result": 1}
{"compound": "CC1NC(=O)NC1=O (configuration not stated)", "measured-result": 1.01}
{"compound": "CN1CCOC(c2ccccc2)c2ccccc2C1 (configuration not stated)", "measured-result": 1.04}
{"compound": "ClC(Cl)=C(c1ccc(Cl)cc1)c1ccc(Cl)cc1", "measured-result": 0.953}
{"compound": "CC(=O)Nc1ccc(OC(=O)c2ccccc2O)cc1", "measured-result": 0.952}

Items follow; give normalized growth for each.
1. Nc1ccc(C(=O)O)c(O)c1 (tested in a mixture with another compound)
2. COc1ccc2cc3[n+](cc2c1OC)CCc1cc2c(cc1-3)OCO2

*A*
1: 0.977; 2: 0.8

Parameter requested: normalized growth. Apply to each item below.
1. COc1cc([C@@H]2c3cc4c(cc3C(O[C@@H]3O[C@@H]5CO[C@@H](c6cccs6)OC5[C@H](O)[C@H]3O)C3COC(=O)[C@@H]32)OCO4)cc(OC)c1O (some centres not stated)
2. Cc1cc(=O)c2c(O)c3c(cc2o1)OC(C)(C)CC3

*A*
[1.01, 0.95]

Parameters: items (list). Returns: normalized growth for each item.
1. Nc1ccc(C(=O)Oc2ccccc2)c(O)c1
2. CN(C)CCC=C1c2ccccc2CCc2ccccc21
3. OC1C(O)C(O)C(O)C(O)C1O (configuration not stated)
4. COc1c2c(cc3c1OCO3)CC[N+](C)=C2
5. O=C1c2c(O)ccc(O)c2C(=O)c2c(NCCNCCO)ccc(NCCNCCO)c21

*A*
[0.77, 1, 0.976, 1.01, 1.01]

State recorded normalized growth for all listed compounds.
1. Nc1ccc(C(=O)O)c(O)c1
2. Clc1ccc(Cl)cc1

*A*
0.997
0.981

*Q* For the compound `CC(=O)O.CC(=O)O.[Cd]` , what normalized growth is on record?
*A* 0.188
